Numbers sourced from patent US20230339886A1.

Target: REV-ERBα LBD (human; residues 281-614 Δ324-422) (Homo sapiens, UniProt P20393, DEL324-422)
Construct: 6×Histag-REV-ERBα LBD (human; residues 281-614 Δ324-422); made in house; host or cells: Escherichia coli
Sequence (P20393 with tags, fused parts or gaps DEL324-422): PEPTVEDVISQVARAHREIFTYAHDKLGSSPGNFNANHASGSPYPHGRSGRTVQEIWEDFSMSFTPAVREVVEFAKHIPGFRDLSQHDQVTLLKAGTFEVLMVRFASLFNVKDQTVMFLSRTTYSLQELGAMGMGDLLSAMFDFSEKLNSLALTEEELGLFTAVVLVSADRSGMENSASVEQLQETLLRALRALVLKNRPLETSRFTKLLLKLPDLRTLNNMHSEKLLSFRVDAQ
Sequence (Q9Y618 2335-2356 partner limits assumed): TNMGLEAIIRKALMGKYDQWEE
Assay: TR-FRET corepressor interaction assay (REV-ERBα LBD, FITC-SMRT peptide)
Format: biochemical
Conditions: Table 2, read-out: REVERBα agonism (EC50 class, FRET assay)
pEC50: −log10 of the molar value.
Measured pEC50, listed per entry for reference.

Qu. Record lookup: for REV-ERBα LBD (human; residues 281-614 Δ324-422) (Homo sapiens, UniProt P20393, DEL324-422), what pEC50 belongs to CC(C)(C)Cn1cc([C@H](NS(=O)(=O)C2CC2)C(F)(F)F)c2cc(F)c(-c3ccn[nH]3)cc21 [Example 380] ?
Ans. > 6.30

Qu. Record lookup: for REV-ERBα LBD (human; residues 281-614 Δ324-422) (Homo sapiens, UniProt P20393, DEL324-422), what pEC50 belongs to CC(C)Cn1cc([C@H](NS(=O)(=O)C2CC2)C(F)(F)F)c2ccc(-c3ccccc3Cl)cc21 [Example 311] ?
Ans. > 6.30

Qu. Record lookup: for REV-ERBα LBD (human; residues 281-614 Δ324-422) (Homo sapiens, UniProt P20393, DEL324-422), what pEC50 belongs to CN(C)S(=O)(=O)NCCc1cn(Cc2ccccc2F)c2cc(-c3ccncc3)ccc12 [Example 150] ?
Ans. 5.52 to 6.30

Qu. Record lookup: for REV-ERBα LBD (human; residues 281-614 Δ324-422) (Homo sapiens, UniProt P20393, DEL324-422), what pEC50 belongs to CN(C)S(=O)(=O)NCCc1cn(Cc2ccncc2)c2cc(Br)ccc12 [Example 162] ?
Ans. 5.52 to 6.30

Qu. Record lookup: for REV-ERBα LBD (human; residues 281-614 Δ324-422) (Homo sapiens, UniProt P20393, DEL324-422), what pEC50 belongs to CC(C)(C)Cc1cn(CCNS(=O)(=O)C2CC2)c2ccc(-c3ccc(Cl)cc3C#N)cc12 [Example 401] ?
Ans. > 6.30

Qu. Record lookup: for REV-ERBα LBD (human; residues 281-614 Δ324-422) (Homo sapiens, UniProt P20393, DEL324-422), what pEC50 belongs to CC(C)(C)Cc1cn(CCNS(=O)(=O)C2CC2)c2ccc(-c3ccc(F)c4ccccc34)cc12 [Example 219] ?
Ans. > 6.30

Qu. Record lookup: for REV-ERBα LBD (human; residues 281-614 Δ324-422) (Homo sapiens, UniProt P20393, DEL324-422), what pEC50 belongs to Cc1ccc(-c2ccc3c(CCNS(=O)(=O)C4CC4)cn(CC(C)(C)C)c3c2)c(C(F)(F)F)c1 [Example 398] ?
Ans. > 6.30

Qu. Record lookup: for REV-ERBα LBD (human; residues 281-614 Δ324-422) (Homo sapiens, UniProt P20393, DEL324-422), what pEC50 belongs to CC(C)S(=O)(=O)NCCc1cn(CC(C(F)(F)F)C(F)(F)F)c2cc(-c3ccncc3)ccc12 [Compound 271] ?
Ans. 5.52 to 6.30

---
Qu. Record lookup: for REV-ERBα LBD (human; residues 281-614 Δ324-422) (Homo sapiens, UniProt P20393, DEL324-422), what pEC50 belongs to CC(C)(C)Cn1cc([C@H](NS(=O)(=O)C2CC2)C(F)(F)F)c2ccc(-c3c(F)cccc3C(F)(F)F)cc21 [Example 373] ?
Ans. > 6.30

Qu. Record lookup: for REV-ERBα LBD (human; residues 281-614 Δ324-422) (Homo sapiens, UniProt P20393, DEL324-422), what pEC50 belongs to CC(C)Cn1cc(CCNS(=O)(=O)N(C)C)c2ccc(NC(=O)c3ccccc3)cc21 [Compound 71] ?
Ans. < 5.52

Qu. Record lookup: for REV-ERBα LBD (human; residues 281-614 Δ324-422) (Homo sapiens, UniProt P20393, DEL324-422), what pEC50 belongs to CC(C)Cn1cc(CC(=O)NS(=O)(=O)N(C)C)c2ccc(-c3ccncc3)cc21 [Compound 234] ?
Ans. < 5.52

Qu. Record lookup: for REV-ERBα LBD (human; residues 281-614 Δ324-422) (Homo sapiens, UniProt P20393, DEL324-422), what pEC50 belongs to CNS(=O)(=O)N[C@@H](c1cn(CC(C)(C)C)c2cc(-c3ccccc3C(F)(F)F)c(F)cc12)C(F)(F)F [Example 371] ?
Ans. 5.52 to 6.30

Qu. Record lookup: for REV-ERBα LBD (human; residues 281-614 Δ324-422) (Homo sapiens, UniProt P20393, DEL324-422), what pEC50 belongs to CC(C)Cn1cc([C@H](NS(=O)(=O)C2CC2)C(F)(F)F)c2cc(F)c(C(C)C)cc21 [Example 334] ?
Ans. 5.52 to 6.30

Qu. Record lookup: for REV-ERBα LBD (human; residues 281-614 Δ324-422) (Homo sapiens, UniProt P20393, DEL324-422), what pEC50 belongs to CC(C)Cn1cc([C@H](NS(=O)(=O)C2CC2)C(F)(F)F)c2ccc(-c3ccc(F)cc3C(F)(F)F)cc21 [Example 324] ?
Ans. > 6.30

Qu. Record lookup: for REV-ERBα LBD (human; residues 281-614 Δ324-422) (Homo sapiens, UniProt P20393, DEL324-422), what pEC50 belongs to CC(C)(C)Cc1cn(CCNS(=O)(=O)C2CC2)c2ccc(-c3ccc(F)cc3C(F)(F)F)cc12 [Example 301] ?
Ans. > 6.30

---

Molecular target: REV-ERBα LBD (human; residues 281-614 Δ324-422) (Homo sapiens, UniProt P20393, DEL324-422)
Construct: 6×Histag-REV-ERBα LBD (human; residues 281-614 Δ324-422); made in house; host or cells: Escherichia coli
Assay: TR-FRET corepressor interaction assay (REV-ERBα LBD, FITC-SMRT peptide)
Assay type: biochemical
Settings: Table 2, read-out: REVERBα agonism (EC50 class, FRET assay)
endpoint: EC50

Before answering, review these 3 worked examples.
Qu. Requested field: EC50. Item: `CC(C)(C)Cn1cc([C@H](NS(=O)(=O)C2CC(F)(F)C2)C(F)(F)F)c2ccc(-c3ccccc3C(F)(F)F)cc21`
Ans. 500 to 3000 nM

Qu. Requested field: EC50. Item: `CC(C)(C)Cc1cn(CCNS(=O)(=O)C2CC2)c2ccc(-c3ccc(F)c(F)c3)cc12`
Ans. 500 to 3000 nM

Qu. Requested field: EC50. Item: `CC(C)c1ccc2c([C@H](NS(=O)(=O)C3CCC3)C(F)(F)F)cn(CC(C)(C)C)c2c1`
Ans. 500 to 3000 nM

Next compound, EC50 to be filled in.
Qu. Requested field: EC50. Item: `CC(C)Cn1cc(CCNS(=O)(=O)N(C)C)c2ccc(Br)cc21`
Ans. < 500 nM

---

Measured EC50, listed per entry for reference.
Biological target: REV-ERBα LBD (human; residues 281-614 Δ324-422) (Homo sapiens, UniProt P20393, DEL324-422)
Construct: 6×Histag-REV-ERBα LBD (human; residues 281-614 Δ324-422); made in house; host or cells: Escherichia coli
Assay: TR-FRET corepressor interaction assay (REV-ERBα LBD, FITC-SMRT peptide)
Type: biochemical
Details: FITC-SMRT peptide, read-out: REVERBα agonism (EC50 class, FRET assay)

Qu. Requested field: EC50. Item: `CC(C)Cn1cc([C@H](NS(=O)(=O)C2CC2)C(F)(F)F)c2cc(F)c(-c3ccnc4c3CCCC4)cc21`
Ans. < 500 nM

Qu. Requested field: EC50. Item: `CC(C)(C)Cn1cc([C@H](NS(=O)(=O)C2CC2)C(=O)O)c2ccc(-c3ccccc3C(F)(F)F)cc21`
Ans. > 3000 nM

Qu. Requested field: EC50. Item: `CC(C)(C)Cn1cc([C@H](NS(=O)(=O)C2CC2)C(F)(F)F)c2ccc(-c3ncccc3C#N)cc21`
Ans. < 500 nM

---
Qu. Requested field: EC50. Item: `CC(C)(C)Cn1cc([C@H](NS(=O)(=O)C2CCC2)C(F)F)c2cc(F)c(-c3ccccc3C(F)(F)F)cc21`
Ans. < 500 nM

---

Measured EC50, listed per entry for reference.
Molecular target: REV-ERBα LBD (human; residues 281-614 Δ324-422) (Homo sapiens, UniProt P20393, DEL324-422)
Construct: 6×Histag-REV-ERBα LBD (human; residues 281-614 Δ324-422); made in house; host or cells: Escherichia coli
Assay: TR-FRET corepressor interaction assay (REV-ERBα LBD, FITC-SMRT peptide)
Assay type: biochemical
Settings: Table 2, read-out: REVERBα agonism (EC50 class, FRET assay)

Before answering, review these 4 worked examples.
Qu. Requested field: EC50. Item: `CNC(=O)Cn1cc(CCNS(=O)(=O)N(C)C)c2ccc(Br)cc21`
Ans. 500 to 3000 nM

Qu. Requested field: EC50. Item: `CN(C)S(=O)(=O)NCCc1cn(Cc2cccnc2)c2cc(Br)ccc12`
Ans. 500 to 3000 nM

Qu. Requested field: EC50. Item: `CC(C)(C)Cn1cc([C@H](NS(=O)(=O)C2CC2)C(F)(F)F)c2ccc(Br)cc21`
Ans. < 500 nM

Qu. Requested field: EC50. Item: CC(NS(=O)(=O)N(C)C)c1cn(C(=O)C(C)(C)C)c2cc(-c3ccncc3)ccc12 (stereo not shown)
Ans. < 500 nM

---
Qu. Requested field: EC50. Item: `CC(C)(C)Cc1cn(CCNS(=O)(=O)C2CC2)c2ccc(-c3ccccc3)cc12`
Ans. 500 to 3000 nM
